# SYSTEM_TESTED: TACE (Homo sapiens)
# Construct: made in house; host or cells: mammalian cells or insect cells
# Sequence (P78536 215-824): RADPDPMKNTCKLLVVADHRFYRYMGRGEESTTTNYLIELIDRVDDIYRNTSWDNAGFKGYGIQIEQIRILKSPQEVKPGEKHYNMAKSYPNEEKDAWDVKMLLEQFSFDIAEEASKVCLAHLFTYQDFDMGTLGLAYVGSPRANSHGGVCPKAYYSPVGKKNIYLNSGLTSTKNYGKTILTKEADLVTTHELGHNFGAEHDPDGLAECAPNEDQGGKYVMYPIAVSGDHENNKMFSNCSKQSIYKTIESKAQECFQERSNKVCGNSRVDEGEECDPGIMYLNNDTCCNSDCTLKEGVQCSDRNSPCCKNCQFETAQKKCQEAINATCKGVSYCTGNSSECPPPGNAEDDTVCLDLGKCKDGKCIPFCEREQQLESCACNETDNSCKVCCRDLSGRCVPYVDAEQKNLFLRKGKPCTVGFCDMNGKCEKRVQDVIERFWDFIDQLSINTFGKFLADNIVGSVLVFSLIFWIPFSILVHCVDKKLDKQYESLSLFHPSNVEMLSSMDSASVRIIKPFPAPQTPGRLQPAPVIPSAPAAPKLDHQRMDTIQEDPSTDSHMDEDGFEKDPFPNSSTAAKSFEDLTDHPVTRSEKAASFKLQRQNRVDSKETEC
# METHOD: TACE inhibition experiment (in vitro)
# Assay type: biochemical
OUTCOME_MEASURE: IC50 (nM)

1 = Cc1cc(Cl)cc(COc2ccc(S(=O)(=O)CC(CC3CCC(=NO)CC3)N(O)C=O)cc2)c1 (stereo not shown)
2 = Cc1cc(COc2ccc(S(=O)(=O)CC(c3ccccc3C)N(O)C=O)cc2)c2ccccc2n1 (stereo not shown)
3 = CCN1CCCC(C(CS(=O)(=O)c2ccc(OCc3cc(C)nc4ccccc34)cc2)N(O)C=O)C1 (stereo not shown)
4 = Cc1cc(COc2ccc(S(=O)(=O)CC(C3CCC(=NOC=O)CC3)N(O)C=O)cc2)c2ccccc2n1 (stereo not shown)
Arrange by IC50, high to low. Note for the reader: the ranking is given by listing the labels in the order requested.
1, 3, 4, 2
(1: 200 nM, 3: 33 nM, 4: 21 nM, 2: 5 nM)
